# System: ABUTH (Velvetleaf)
# Assay Name: Preemergence herbicidal evaluation
# Assay type: in vivo, Abutilon theophrasti
# Run Conditions: rate 0.1250 kg/ha; rated 4-5 weeks after treatment; rating scale 0-9
Listed compounds paired with reported Preemergence herbicidal rating ABUTH

# Compound, Preemergence herbicidal rating ABUTH
records = [
    ("Cn1c(C(F)(F)F)cc(=O)n(-c2cc(N=C3SCC(=O)N3Cc3cc(Cl)cc(Cl)c3)c(Cl)cc2F)c1=O [Compound 150]", 9.0),
    ("C=C1SC(=Nc2cc(-n3c(=O)cc(C(F)(F)F)n(C)c3=O)c(F)cc2Cl)N(CC(=O)OCC)C1=O [Compound 154]", 9.0),
    ("Cn1c(C(F)(F)F)cc(=O)n(-c2cc(N=C3SCC(=O)N3Cc3ccc(C(F)(F)F)cc3)c(Cl)cc2F)c1=O [Compound 141]", 4.0),
    ("Cn1c(C(F)(F)F)cc(=O)n(-c2cc(N=C3SCC(=O)N3Cc3ccccn3)c(Cl)cc2F)c1=O [Compound 131]", 2.0),
    ("Cc1cc(C)cc(CN2C(=O)CSC2=Nc2cc(-n3c(=O)cc(C(F)(F)F)n(C)c3=O)c(F)cc2Cl)c1 [Compound 146]", 9.0),
    ("Cn1c(C(F)(F)F)cc(=O)n(-c2cc(N=C3SCC(=O)N3Cc3ccncc3)c(Cl)cc2F)c1=O [Compound 133]", 1.0),
]

* * *

# maps each entry to its Herbicidal rating ABUTH
# Test system: ABUTH (Velvetleaf)
# Assay Name: Postemergence herbicidal evaluation
# Format: in vivo, Abutilon theophrasti
# Run Conditions: postemergence, rate 0.0156 kg/ha

# Compound, Tested On, Herbicidal rating ABUTH
data = [
    ("Cn1c(C(F)(F)F)cc(=O)n(-c2cc(N=C3SCC(=O)N3C3CCC3)c(Cl)cc2F)c1=O", "ABUTH (Velvetleaf)", 9.0),
    ("Cc1ccccc1CN1C(=O)CSC1=Nc1cc(-n2c(=O)cc(C(F)(F)F)n(C)c2=O)c(F)cc1Cl", "ABUTH (Velvetleaf)", 9.0),
    ("CCOC(=O)CN1C(=O)C(OC)SC1=Nc1cc(-n2c(=O)cc(C(F)(F)F)n(C)c2=O)c(F)cc1Cl (centres unmarked)", "ABUTH (Velvetleaf)", 9.0),
    ("CCN1C(=O)CSC1=Nc1cc(-n2c(=O)cc(C(F)(F)F)n(C)c2=O)c(F)cc1Cl", "ABUTH (Velvetleaf)", 9.0),
    ("Cn1c(C(F)(F)F)cc(=O)n(-c2cc(N=C3SCC(=O)N3CC(=O)OCC3CCCCC3)c(Cl)cc2F)c1=O", "ABUTH (Velvetleaf)", 9.0),
]

* * *

# System: ECHORC (Watergrass (Calif.))
# Assay Name: Preemergence weed control under flooded paddy conditions
# Format: in vivo, Echinochloa oryzoides
# Run Conditions: 0.1250 kg/ha, rated 3-4 weeks after treatment
Please note: true applies when ECHORC herbicidal effect rating is 5 or greater, and false applies otherwise.

# Molecule, Discrete Label
measured = [
    ("C=CCN1C(=O)C(CC(=O)OC)SC1=Nc1cc(-n2c(=O)cc(C(F)(F)F)n(C)c2=O)c(F)cc1Cl (stereo not drawn)", "true"),
    ("CC(C)C[C@@H](C(=O)O)N1C(=O)CSC1=Nc1cc(-n2c(=O)cc(C(F)(F)F)n(C)c2=O)c(F)cc1Cl", "false"),
    ("COC(=O)C(Cc1ccc(Cl)cc1)N1C(=O)CSC1=Nc1cc(-n2c(=O)cc(C(F)(F)F)n(C)c2=O)c(F)cc1Cl (racemic)", "true"),
    ("C[C@H](C(=O)O)N1C(=O)CSC1=Nc1cc(-n2c(=O)cc(C(F)(F)F)n(C)c2=O)c(F)cc1Cl", "false"),
    ("C=CCN1C(=O)C(CC(=O)NS(=O)(=O)CC)SC1=Nc1cc(-n2c(=O)cc(C(F)(F)F)n(C)c2=O)c(F)cc1Cl (stereo not drawn)", "true"),
    ("CN1C(=O)C(CC(=O)OCCF)SC1=Nc1cc(-n2c(=O)cc(C(F)(F)F)n(C)c2=O)c(F)cc1Cl (stereo not drawn)", "false"),
    ("CCOC(=O)CN1C(=O)C(CC(=O)NOC)SC1=Nc1cc(-n2c(=O)cc(C(F)(F)F)n(C)c2=O)c(F)cc1Cl (stereo not drawn)", "true"),
    ("C=CCN1C(=O)C(CC(=O)NS(=O)(=O)c2ccccc2)SC1=Nc1cc(-n2c(=O)cc(C(F)(F)F)n(C)c2=O)c(F)cc1Cl (stereo not drawn)", "false"),
    ("COC(=O)COC(=O)CN1C(=O)CSC1=Nc1cc(-n2c(=O)cc(C(F)(F)F)n(C)c2=O)c(F)cc1Cl", "false"),
    ("CCOC(=O)CN1C(=O)C(CC(=O)Nc2ccccc2)SC1=Nc1cc(-n2c(=O)cc(C(F)(F)F)n(C)c2=O)c(F)cc1Cl (stereo not drawn)", "true"),
]
